Test system: Candida albicans
Assay: Antifungal activity against Candida albicans IMRU 3669 at 5 mg/ml by agar disk diffusion assay
Format: functional
Conditions: Candida albicans, IMRU 3669; read-out: DIZ
Mark true (1) for reported zone of inhibition at 5000 µg/mL of 20 mm or greater; mark false (0) for anything smaller.

# COMPOUND, TARGET, LABEL VALUE
records = [
    ("N#CC(=S)Nc1ccc(Cl)c(Cl)c1", "Candida albicans", "true (1)"),
    ("CCOc1ccc(N2C(=O)N(c3ccc4c(c3)Cc3ccccc3-4)C(=O)C2=S)cc1", "Candida albicans", "false (0)"),
    ("N=C1C(=S)N(c2ccc(Cl)c(Cl)c2)C(=O)N1c1ccc(Oc2ccc(N3C(=N)C(=S)N(c4ccc(Cl)c(Cl)c4)C3=O)cc2)cc1", "Candida albicans", "false (0)"),
    ("N=C1C(=S)N(c2ccc(I)cc2)C(=O)N1c1ccc2c(c1)Cc1ccccc1-2", "Candida albicans", "false (0)"),
    ("N=C1C(=S)N(c2ccc(I)cc2)C(=S)N1c1ccc(I)cc1", "Candida albicans", "true (1)"),
    ("O=C1N(c2ccc(Cl)cc2)CC(=S)N1c1ccc(Cl)c(Cl)c1", "Candida albicans", "true (1)"),
    ("N=C1C(=S)N(c2ccc(Cl)cc2)C(=O)N1c1cccc2ccccc12", "Candida albicans", "false (0)"),
    ("CC1OC(=N)C(=S)N1c1ccc(Cl)c(Cl)c1 (stereo not given)", "Candida albicans", "true (1)"),
    ("N=C1C(=S)N(c2ccc(I)cc2)C(=O)N1c1cc(Cl)c(Cl)cc1Cl", "Candida albicans", "false (0)"),
    ("N=C1C(=S)N(c2ccc(Br)cc2)C(=O)N1c1ccc2c(c1)Cc1ccccc1-2", "Candida albicans", "false (0)"),
    ("N=C1C(=S)N(c2ccc(Br)cc2)C(=S)N1c1ccc(Br)cc1", "Candida albicans", "true (1)"),
    ("CCOc1ccc(N2C(=O)N(c3ccc4c(c3)Cc3ccccc3-4)C(=N)C2=S)cc1", "Candida albicans", "false (0)"),
    ("CCOc1ccc(N2C(=O)N(c3c(CC)cc(Cc4cc(CC)c(N5C(=N)C(=S)N(c6ccc(OCC)cc6)C5=O)c(CC)c4)cc3CC)C(=N)C2=S)cc1", "Candida albicans", "false (0)"),
    ("N=C1C(=S)N(c2ccc(Cl)c(Cl)c2)C(=O)N1c1ccc(Cl)cc1", "Candida albicans", "false (0)"),
    ("N=C1C(=S)N(c2ccc(Br)cc2)C(=O)N1c1cc(Cl)c(Cl)cc1Cl", "Candida albicans", "false (0)"),
]

The reported numbers originate from ChEMBL document CHEMBL1155362.
